Test system: wheat germ agglutinin (Triticum aestivum), Alexa647-labelled
MEASUREMENT DESCRIPTION: wheat germ agglutinin binders on compound microarrays, profiling panel, artefact control for SMM control-protein annotation, biochemical, small-molecule microarray, 635/667 nm fluorescence (AID 1140);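 also: score merges 667 nm feature emission with signal to noise over triplicate slides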
PARTICULARS: WGA-A647 binding, 635 nm fluorescence, higher = more signal
EXPERIMENTAL READOUT: composite z-score

>>> df
                                   compound  reported_measurement
0  CC(CCC(=O)OC[C@H]1O[C@H](C#Cc2ccccc2)C=C[C@@H]1Oc1ccc(C)cc1)=NO[C@@H](C)c1cn([C@H](CO)Cc2ccccc2)nn1                 0.587
1  CCOC(=O)NN=C1C[C@@H](O)[C@@H](O)[C@@H]2[C@@H]3C(=O)N(C4CCCCC4)C(=O)[C@@H]3CC[C@H]12                 0.395
2  Cc1cc2c(nc1C)CCCN2CC(C)ON=C1[C@H]2CCn3c(=O)n(-c4ccccc4)c(=O)n3[C@H]2[C@H](O)[C@@H]2O[C@H]12 (some centres undefined)                 0.075
3  CO[C@@H]1COC(=O)CC=C[C@@H](C)[C@@H]2C=C[C@H](O)[C@@H](COC(=O)[C@H](C)NC(=O)CC=C[C@H]1C)O2                 -0.17

---

MEASUREMENT DESCRIPTION: CREB reporter modulators under forskolin, primary screen, cell-based, PC12, CRE-LacZ reporter, forskolin-stimulated (AID 1146);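 also: PC12 cells with 6xCRE LacZ reporter stimulated by forskolin 10 µM; beta-galactosidase reporter signal reflecting CREB driven transcription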
PARTICULARS: luminescence, 4.5 h, higher = more signal, called active from +8 up or from −8 down
Reported z-score is given for each of the following molecules.
EXPERIMENTAL READOUT: z-score

                                   molecule  experimental_readout  reported_measurement
0  CC(C)(C)N1C(=O)[C@H]2[C@H]3[C@H](O)[C@H](O)CC(=NO[C@@H]4O[C@H](CO)[C@@H](O)[C@H](O)[C@H]4O)[C@@H]3CC[C@H]2C1=O               z-score                 0.217
1  COCCOC(=O)N1C(=O)[C@@]2(c3ccccc31)[C@H](C(N)=O)[C@H]1C(=O)O[C@H](c3ccccc3)[C@H](c3ccccc3)N1[C@@H]2c1ccccc1OCCO               z-score                 0.406
2   COC(=O)CC=C[C@@H](C)[C@H](OC)c1ccccc1Br               z-score                -0.868
3  COC(=O)C1=C(C)[C@@H](O)[C@@H](C)[C@H](c2c(OC)c(OC)c(C)c(OC)c2OC)O1               z-score                0.0745

---

MEASUREMENT DESCRIPTION: A549 cell viability effects, profiling panel, calcein-AM fluorescence, 48 h, basal (AID 1162); also: test concentration not given here
PARTICULARS: higher = more signal
Outcome: 1 for z-score of at least -0.2; 0 for anything lower.

MOLECULE	GROUP
NCCCCCNC(=O)[C@@H]1C[C@@H]2C(=O)N3CCC[C@H]3C(=O)N2[C@@H]1c1cccc(OCCO)c1	0
O=C1[C@H]2[C@H]3[C@H](O)[C@H](O)CC(=NO[C@@H]4O[C@H](CO)[C@@H](O)[C@H](O)[C@H]4O)[C@@H]3CC[C@H]2C(=O)N1Cc1ccccc1	1
COc1ccc([Si](C)(C)[C@@H]2[C@@H](CC(=O)N3CCC[C@H]3CO)O[C@]3(C(=O)N(Cc4cccc(N5CCC5=O)c4)c4ccccc43)[C@H]2C)cc1	0
Cc1ccc(F)cc1S(=O)(=O)N[C@@H]1CCN(Cc2ccc(CC(C)C)cc2)C1	0
CC(C)=NOCc1cccc(-c2cc(-c3ccccc3)no2)c1	0
C=CCOC(=O)[C@H]1[C@@H]2C(=O)O[C@@H](c3ccccc3)[C@@H](c3ccccc3)N2[C@@H](c2ccc(OCCOC(=O)[C@H]3C[C@H]4C(=O)N5CCC[C@H]5C(=O)N4[C@H]3c3cccc(OCCO)c3)cc2)[C@]12C(=O)Nc1ccc(I)cc12	1
CN(C)c1ccc(C(O)C2C=CC3C(=O)N(c4ccccc4)C(=O)C3N2Nc2ccccc2F)cc1 (configuration not stated)	0
